- Test system: Euschistus heros (Neotropical Brown Stink Bug)
- assay.summary: Activity against Euschistus heros (neotropical brown stink bug), soybean leaves sprayed
- Format: in vivo
- settings: 120 h, application rate 200 ppm, N2 nymphs, 5 days after infestation, read-out: effect in at least one of the two categories (mortality or growth inhibition)
value.kind: percent effect (mortality or growth inhibition) at 200 ppm

Input line: Write down percent effect (mortality or growth inhibition) at 200 ppm measured for item `CCS(=O)(=O)c1cc(C2(C#N)CC2)cnc1-c1nc2cc(C(F)(F)F)n(OC)c(=O)c2n1C`
Output line: ≥ 80%

Input line: Write down percent effect (mortality or growth inhibition) at 200 ppm measured for item `CCS(=O)(=O)c1cc(C(C)(C)C#N)ccc1-c1nc2cc(C(F)(F)F)n(OC)c(=O)c2n1C`
Output line: ≥ 80%

Input line: Write down percent effect (mortality or growth inhibition) at 200 ppm measured for item `CCS(=O)(=O)c1cc(C(F)(F)F)cnc1-c1nc2cc(C(F)(F)F)n(OC)c(=O)c2n1C`
Output line: ≥ 80%

Input line: Write down percent effect (mortality or growth inhibition) at 200 ppm measured for item `CCS(=O)(=O)c1cc(Cl)c(N)nc1-c1nc2cc(C(F)(F)F)n(OC)c(=O)c2n1C`
Output line: ≥ 80%

Input line: Write down percent effect (mortality or growth inhibition) at 200 ppm measured for item `CCS(=O)(=O)c1cc(C2(C#N)CC2)ccc1-c1nc2cc(C(F)(F)F)n(OC)c(=O)c2n1C`
Output line: ≥ 80%

---

- Test system: Euschistus heros (Neotropical Brown Stink Bug)
- assay.summary: Activity against Euschistus heros (neotropical brown stink bug), soybean leaves sprayed
- Type: in vivo
- settings: 120 h, application rate 200 ppm, N2 nymphs, 5 days after infestation, read-out: effect in at least one of the two categories (mortality or growth inhibition)
# reported percent effect (mortality or growth inhibition) at 200 ppm; entries follow

Some solved entries appear below for comparison.
- CCSc1ccccc1-c1nc2cc(C(F)(F)F)n(OC)c(=O)c2n1C: ≥ 80%
- CCS(=O)(=O)c1ccc(-n2nccn2)nc1-c1nc2cc(C(F)(F)F)n(OC)c(=O)c2n1C: ≥ 80%

Please examine the following record next.
Input line: Name the value of percent effect (mortality or growth inhibition) at 200 ppm reported for `CCS(=O)(=O)c1cc(Br)c(N)nc1-c1nc2cc(C(F)(F)F)n(OC)c(=O)c2n1C` when tested on Euschistus heros (Neotropical Brown Stink Bug).
Output line: ≥ 80%
